target: T1, human HER2 (human, UniProt P04626 23-1255); experiment: FACS CHO-HER2, 667 nM
T1 construct: also called hHER2
PROPERTY_LABEL: MCF
Could you respond with only the numeric value?

{"BINDER": "18E08 (VHH) VHH: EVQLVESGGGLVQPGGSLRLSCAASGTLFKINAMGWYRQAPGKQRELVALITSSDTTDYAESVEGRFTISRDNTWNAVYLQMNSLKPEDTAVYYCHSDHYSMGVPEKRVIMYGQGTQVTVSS", "MCF": 52}
{"BINDER": "18F05 (VHH, also called 18F5) VHH: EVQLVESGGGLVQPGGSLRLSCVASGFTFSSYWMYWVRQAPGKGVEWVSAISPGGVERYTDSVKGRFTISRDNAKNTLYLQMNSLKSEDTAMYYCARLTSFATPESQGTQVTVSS", "MCF": 347}
{"BINDER": "18G11 (VHH, c-myc, His6-tagged form as expressed; also called HER3MS18G11; HER3MS018G11) VHH: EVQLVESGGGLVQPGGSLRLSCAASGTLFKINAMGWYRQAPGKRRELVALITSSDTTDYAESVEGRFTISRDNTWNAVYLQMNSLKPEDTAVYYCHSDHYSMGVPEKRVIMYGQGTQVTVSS", "MCF": 117}

Field: next binder
q: What value of measured MCF is listed for 17C08 (VHH, also called 17C8) VHH: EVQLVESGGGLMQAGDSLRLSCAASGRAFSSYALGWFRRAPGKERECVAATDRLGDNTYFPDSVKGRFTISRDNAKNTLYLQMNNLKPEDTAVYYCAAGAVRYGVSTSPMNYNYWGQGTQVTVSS ?
a: 418
